These measurements were taken from ChEMBL document CHEMBL1153606.

Test system: Staphylococcus aureus
Method Description: Antibacterial activity against multidrug-resistant Staphylococcus aureus after 20 hrs by cylinder and well method
Assay type: functional
Form field: inhibition zone (IZ) (one value per entry).
Param answer (str): number followed by unit.

Worked set:
>>> measured("CN(C)c1ccc(C2CC(c3cc4ccccc4o3)=NN2C(=O)Cn2c3ccccc3c3nc4ccccc4nc32)cc1 (stereo not drawn)")
"14 mm"
>>> measured("COc1ccccc1C1CC(c2cc3ccccc3o2)=NN1C(=O)Cn1c2ccccc2c2nc3ccccc3nc21 (stereo not drawn)")
"11 mm"
>>> measured("O=C(Cn1c2ccccc2c2nc3ccccc3nc21)N1N=C(c2cc3ccccc3o2)CC1/C=C/c1ccccc1 (stereo not drawn)")
"14 mm"
>>> measured("CCn1cc(C(=O)O)c(=O)c2cc(F)c(N3CCNCC3)cc21")
"28 mm"
>>> measured("COc1ccc(C2CC(c3cc4ccccc4o3)=NN2C(=O)Cn2c3ccccc3c3nc4ccccc4nc32)c(O)c1 (stereo not drawn)")
"13 mm"

(Q) May I ask what inhibition zone (IZ) has been recorded for COc1ccc(C2CC(c3cc4ccccc4o3)=NN2C(=O)Cn2c3ccccc3c3nc4ccccc4nc32)cc1 (stereo not drawn) ?
(A) 12 mm

(Q) Fill blank: measured inhibition zone (IZ) of the molecule O=C(Cn1c2ccccc2c2nc3ccccc3nc21)N1N=C(c2cc3ccccc3o2)CC1c1ccccc1 (stereo not drawn) is ____.
(A) 16 mm

(Q) Need inhibition zone (IZ) of O=C(Cn1c2ccccc2c2nc3ccccc3nc21)N1N=C(c2cc3ccccc3o2)CC1c1ccccc1O (stereo not drawn) , thanks.
(A) 13 mm

====

System: Streptococcus pyogenes
Method Description: Antibacterial activity against multidrug-resistant Streptococcus pyogenes after 20 hrs by cylinder and well method; note: test concentration or dose not given here
Assay type: functional
Observed Property: inhibition zone (IZ)
Reply with a number, then the unit it belongs to.

Look over these answered cases.
>>> measured("O=C(Cn1c2ccccc2c2nc3ccccc3nc21)N1N=C(c2cc3ccccc3o2)CC1c1ccccc1[N+](=O)[O-] (centres undefined)")
"10 mm"
>>> measured("O=C(Cn1c2ccccc2c2nc3ccccc3nc21)N1N=C(c2cc3ccccc3o2)CC1c1ccco1 (centres undefined)")
"8 mm"
>>> measured("O=C(Cn1c2ccccc2c2nc3ccccc3nc21)N1N=C(c2cc3ccccc3o2)CC1c1cccc([N+](=O)[O-])c1 (centres undefined)")
"12 mm"

(Q) Which inhibition zone (IZ) value is on record for O=C(Cn1c2ccccc2c2nc3ccccc3nc21)N1N=C(c2cc3ccccc3o2)CC1c1ccc(O)cc1 (centres undefined) ?
(A) 15 mm

====

Test system: Escherichia coli
Method Description: Antibacterial activity against multidrug-resistant Escherichia coli broth after 24 hrs by broth microdilution method
Type: functional
Recorded MIC for the following molecules

Examples with their reported MIC follow.
>>> measured("O=C(Cn1c2ccccc2c2nc3ccccc3nc21)N1N=C(c2cc3ccccc3o2)CC1c1ccccc1[N+](=O)[O-] (stereo not drawn)")
"5.5 µg/mL"
>>> measured("CN(C)c1ccc(C2CC(c3cc4ccccc4o3)=NN2C(=O)Cn2c3ccccc3c3nc4ccccc4nc32)cc1 (stereo not drawn)")
"13.5 µg/mL"
>>> measured("CCn1cc(C(=O)O)c(=O)c2cc(F)c(N3CCNCC3)cc21")
"1.3 µg/mL"
>>> measured("COc1ccc(C2CC(c3cc4ccccc4o3)=NN2C(=O)Cn2c3ccccc3c3nc4ccccc4nc32)cc1 (stereo not drawn)")
"5 µg/mL"
>>> measured("COc1ccccc1C1CC(c2cc3ccccc3o2)=NN1C(=O)Cn1c2ccccc2c2nc3ccccc3nc21 (stereo not drawn)")
"16.5 µg/mL"

(Q) Please provide the recorded MIC for O=C(Cn1c2ccccc2c2nc3ccccc3nc21)N1N=C(c2cc3ccccc3o2)CC1c1ccccc1Cl (stereo not drawn) , tested on Escherichia coli.
(A) 21.5 µg/mL

(Q) Recorded MIC for `C[C@@H]1CN(c2c(F)c(N)c3c(=O)c(C(=O)O)cn(C4CC4)c3c2F)C[C@H](C)N1` with Escherichia coli, please?
(A) 0.26 µg/mL

(Q) Can you look up MIC on Escherichia coli for O=C(Cn1c2ccccc2c2nc3ccccc3nc21)N1N=C(c2cc3ccccc3o2)CC1c1cccc([N+](=O)[O-])c1 (stereo not drawn) ?
(A) 10.5 µg/mL

====

// reported MIC for each item listed
System: Salmonella enterica subsp. enterica
Method Description: Antibacterial activity against multidrug-resistant Salmonella typhi after 24 hrs by broth microdilution method
Format: functional, Salmonella enterica subsp. enterica serovar Typhi
// note: answer is a bare numeric in µg/mL

>>> measured("O=C(Cn1c2ccccc2c2nc3ccccc3nc21)N1N=C(c2cc3ccccc3o2)CC1c1ccc(O)cc1 (stereo not drawn)")
19.5
>>> measured("O=C(Cn1c2ccccc2c2nc3ccccc3nc21)N1N=C(c2cc3ccccc3o2)CC1c1cccc([N+](=O)[O-])c1 (stereo not drawn)")
13
>>> measured("CN(C)c1ccc(C2CC(c3cc4ccccc4o3)=NN2C(=O)Cn2c3ccccc3c3nc4ccccc4nc32)cc1 (stereo not drawn)")
9.5
>>> measured("O=C(Cn1c2ccccc2c2nc3ccccc3nc21)N1N=C(c2cc3ccccc3o2)CC1c1ccccc1 (stereo not drawn)")
17
>>> measured("O=C(Cn1c2ccccc2c2nc3ccccc3nc21)N1N=C(c2cc3ccccc3o2)CC1c1ccccc1O (stereo not drawn)")
8.5
>>> measured("O=C(Cn1c2ccccc2c2nc3ccccc3nc21)N1N=C(c2cc3ccccc3o2)CC1c1ccccc1[N+](=O)[O-] (stereo not drawn)")
14.5
>>> measured("COc1ccc(C2CC(c3cc4ccccc4o3)=NN2C(=O)Cn2c3ccccc3c3nc4ccccc4nc32)c(O)c1 (stereo not drawn)")
14.5

API: the following record is the query input.
(Q) Looking for the measured MIC of O=C(O)c1ccccc1C1CC(c2cc3ccccc3o2)=NN1C(=O)Cn1c2ccccc2c2nc3ccccc3nc21 (stereo not drawn) , can you help?
(A) 15

====

System: Streptococcus agalactiae
Method Description: Antibacterial activity against multidrug-resistant Streptococcus agalactiae after 24 hrs by broth microdilution method
Assay type: functional
Entries annotated with measured MIC
Quick reminder: number only, in µg/mL, skip the unit.

// worked examples, MIC included
>>> measured("CCn1cc(C(=O)O)c(=O)c2cc(F)c(N3CCNCC3)cc21")
22
>>> measured("O=C(O)c1ccccc1C1CC(c2cc3ccccc3o2)=NN1C(=O)Cn1c2ccccc2c2nc3ccccc3nc21 (stereo not drawn)")
24
>>> measured("C[C@@H]1CN(c2c(F)c(N)c3c(=O)c(C(=O)O)cn(C4CC4)c3c2F)C[C@H](C)N1")
12
>>> measured("O=C(Cn1c2ccccc2c2nc3ccccc3nc21)N1N=C(c2cc3ccccc3o2)CC1/C=C/c1ccccc1 (stereo not drawn)")
22.5
>>> measured("O=C(Cn1c2ccccc2c2nc3ccccc3nc21)N1N=C(c2cc3ccccc3o2)CC1c1ccco1 (stereo not drawn)")
26.5

(Q) Hello, I am looking for reported MIC with Streptococcus agalactiae for O=C(Cn1c2ccccc2c2nc3ccccc3nc21)N1N=C(c2cc3ccccc3o2)CC1c1ccccc1[N+](=O)[O-] (stereo not drawn) . Could you help?
(A) 22

(Q) Field: MIC (Streptococcus agalactiae). Entry: O=C(Cn1c2ccccc2c2nc3ccccc3nc21)N1N=C(c2cc3ccccc3o2)CC1c1ccccc1 (stereo not drawn)
(A) 28.5

(Q) Quick check: MIC on Streptococcus agalactiae, item O=C(Cn1c2ccccc2c2nc3ccccc3nc21)N1N=C(c2cc3ccccc3o2)CC1c1ccc(Cl)cc1 (stereo not drawn) ?
(A) 28

====

Measured log10(MIC) of individual entries
Test system: Salmonella enterica subsp. enterica
Method Description: Antibacterial activity against multidrug-resistant Salmonella typhi after 24 hrs by broth microdilution method
Assay type: functional, Salmonella enterica subsp. enterica serovar Typhi
Note: values are log10 of MIC expressed in µg/mL.

(Q) Entry O=C(Cn1c2ccccc2c2nc3ccccc3nc21)N1N=C(c2cc3ccccc3o2)CC1c1ccc(Cl)cc1 (stereo not drawn) has what log10(MIC)?
(A) 1.20

(Q) // returns reported log10(MIC) for input `CCn1cc(C(=O)O)c(=O)c2cc(F)c(N3CCNCC3)cc21`
(A) 1.31

(Q) Form field: reported log10(MIC) of O=C(Cn1c2ccccc2c2nc3ccccc3nc21)N1N=C(c2cc3ccccc3o2)CC1c1ccccc1Cl (stereo not drawn)
(A) 1.18

(Q) Bench note: what log10(MIC) did O=C(Cn1c2ccccc2c2nc3ccccc3nc21)N1N=C(c2cc3ccccc3o2)CC1c1ccco1 (stereo not drawn) show?
(A) 1.22

(Q) Entry under review: `C[C@@H]1CN(c2c(F)c(N)c3c(=O)c(C(=O)O)cn(C4CC4)c3c2F)C[C@H](C)N1` . Reported log10(MIC)?
(A) -0.30

(Q) What value of measured log10(MIC) is listed for COc1ccc(C2CC(c3cc4ccccc4o3)=NN2C(=O)Cn2c3ccccc3c3nc4ccccc4nc32)cc1 (stereo not drawn) ?
(A) 1.08

(Q) Query (compound): O=C(Cn1c2ccccc2c2nc3ccccc3nc21)N1N=C(c2cc3ccccc3o2)CC1/C=C/c1ccccc1 (stereo not drawn) ; field requested: log10(MIC)
(A) 1.16

(Q) Please look up its log10(MIC): COc1ccccc1C1CC(c2cc3ccccc3o2)=NN1C(=O)Cn1c2ccccc2c2nc3ccccc3nc21 (stereo not drawn)
(A) 1.19
